- Tgt: LASV Pinneo (lineage I) glycoprotein (Lassa virus, strain Pinneo)
- Protocol Description: cell-based or functional assay
Below: a set of entries, each annotated with reported IC80 (neutralization).

Reference set, count: 2
{"columns": ["Binder", "IC80 (neutralization)"],
 "data": [
  ["37.7H (antibody, V domains shown) VH: EVQLVQSGGGLVKAGGSLRLSCAASGFTFSTYSMNWIRQAPGKGLEWVASISSRSGSHINYVDSVKGRFTISRDNARDLLYLQMNSLRVDDSALYYCARDRRSGTSPLPLDVWGQGTTVTVFS VL: DQSALTQPASVSGSPGQSITISCTGTGSDIGGYNFVSWYQQYPGKAPKLIIYEVRIRASGVSNRFSGSKSGNTASLTISGLQAEDEADYYCNSYSIHSPWVFGGGTKLTVLR", "1.66 µg/mL"],
  ["10.4B (antibody) VH: DQVQLVQSGGGVVQPGRSLRVSCVTSGFNFRAYGMHWVRQIPGKGLEWVADIWSAETNRHYADSVKGRFTISRDNSKSTLYLQMNSLRAEDTGVYFCAKARPGYDYVVDLWGQGTLVIVSSASTKGPSVFPLAPCSRSTSGGTAALGCLVKDYFPEPVTVSWNSGALTSGVHTFPAVLQSSGL VL: DEIVLTQSPSSLSASVGDRVTITCRASRDINTYLGWFQQRPGKAPKSLIYGASNLQNGVPSRFSGSGSGTYFTLTINGLQTEDFATYYCQQYSIYPLSLGGGTKADMKRTVAAPSVFIFPPSDEQLKSGTASVVCLLNNFYPREAKVQWKVDNALQSGNSQESVTEQDSKDSTYSLSSTLTLSKADYEKHKVYACEVTHQGLSSP", "> 20 µg/mL"]
]}

Next item in the queue.
q: May I ask what IC80 (neutralization) has been recorded for 25.6A (antibody, V domains shown) VH: QVQLQESGGGLVKAGGSLRLSCAASGFMFERYSLHWVRQTPGKGLEWVSSISSLSGSHINYADSVKGRFTISRDNAKNSLSLQMNSLRVEDTAIYYCARDRRSGSSPVPLDVWGQGTTVTVSS VL: DLPVLTQPASVSGSPGQSITISCTGTSSDVGAYNYVSWYQQHPGKAPKLIIYEVKIRPSGVSNRFSGSKSGNTASLTISGLQAEDEADYFCSSYSTNSPWVFGGGTKVTVLR ?
a: 3.11 µg/mL

Provenance of the data: patent US20200002405A1
